tested on: K-562 leukemia; assay: NCI tumour cell line growth inhibition, 48 h
RESULT_TYPE: TGI

Example results:
CC(O)(c1ccc(OCCC[N+](C)(C)C)cc1)C(C)(O)c1ccc(OCCC[N+](C)(C)C)cc1 (stereo not drawn)    > 100 µM
O=C(N/N=C/c1cc(Cl)cc(Cl)c1[OH2+])c1ccncc1.O=S(=O)([O-])[O-].[Fe+2]    51.4 µM
CC1(C)C2=CCCC(=O)[C@@]2(C)CC[C@@H]1O    > 100 µM
C[n+]1ccc2/c(=C\C#N)c3ccccc3n21    > 100 µM
COc1ccc(Cl)cc1Nc1nc(C(F)(F)F)ccc1C(=O)N/N=C/c1ccccc1Cl    > 21.8 µM

Returns the measured TGI for the input compound. Input: `CCOC(=O)c1c(Br)c(-c2ccc([N+](=O)[O-])cc2)c(Br)n1C`
> 10 µM

Same lookup for `O=c1oc2c(O)c(O)cc3c(=O)oc4c(O)c(O)cc1c4c23` , please.
> 100 µM

Also need `CC(=O)CCn1[nH]c(=O)c(Cl)c(Cl)c1=O` , thanks.
> 100 µM
